Recorded IC50, one value per entry.
targetOrSystem: human PD-L1 (Homo sapiens (Human), UniProt Q9NZQ7)
Sequence (Q9NZQ7 19-239): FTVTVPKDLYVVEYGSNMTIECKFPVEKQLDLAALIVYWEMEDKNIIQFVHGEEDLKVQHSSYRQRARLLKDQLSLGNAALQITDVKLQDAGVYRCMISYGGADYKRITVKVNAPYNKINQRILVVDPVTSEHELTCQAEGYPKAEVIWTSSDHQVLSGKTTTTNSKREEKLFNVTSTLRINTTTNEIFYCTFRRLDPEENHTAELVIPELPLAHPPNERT
assayInfo: Enzyme-Linked Immunosorbent Assay (ELISA), PD-1/PD-L1 binding
runConditions: plate-coated human PD-L1, biotinylated Human PD-1, absorbance at 450 nm
Experimental: 96 Well plates were coated with […] of human PD-L1 (obtained from R&D) in PBS overnight at 4° C. The wells were then blocked with 2% BSA in PBS (W/V) with 0.05% TWEEN-20 for 1 hour at 37° C. The plates were washed 3 times with PBS/0.05% TWEEN-20 and the compounds were serial diluted (1:5) in dilution medium and added to the ELISA plates. […] The absorbance was read at 450 nm using a micro-plate spectrophotometer. […]

// solved cases for IC50 follow
In [3]: df
Out[3]:
                             compoundstring  measuredproperty   obsvalue
0  COc1cc(-c2cccc(-c3cccc(NC(=O)c4cn(C)c(=O)n(C)c4=O)c3C)c2Cl)cc(F)c1CN1CC[C@@H](O)C1              IC50  < 0.01 µM
1  COc1cc(-c2cccc(-c3cccc(NC(=O)c4cn(C)c(=O)n(C)c4=O)c3C)c2Cl)cc(F)c1CN[C@H]1COC[C@H]1O              IC50  < 0.01 µM
2  COc1cc(-c2cccc(-c3cccc(Nc4nccc5nccnc45)c3Cl)c2Cl)cc(F)c1CN1CC(C)(C(=O)O)C1              IC50  < 0.01 µM
3  COc1cc(-c2cccc(-c3cccc(NC(=O)c4cn(C)c(=O)n(C)c4=O)c3C)c2Cl)cc(F)c1CN1CCC(O)CC1              IC50  < 0.01 µM
4  COc1cc(-c2cccc(-c3cccc(NC(=O)c4cn(C)c(=O)n(C)c4=O)c3C)c2Cl)cc(F)c1CN[C@@H]1CCOC1              IC50  < 0.01 µM

I have this compound here, `COc1cc(-c2cccc(-c3cccc(NC(=O)c4cn(C)c(=O)n(C)c4=O)c3Cl)c2Cl)cc(F)c1CN[C@@H]1CCC(=O)NC1` , and I need its recorded IC50.
< 0.01 µM

# query: IC50 of entry `COc1cc(-c2cccc(-c3cccc(NC(=O)c4cn(C)c(=O)n(C)c4=O)c3C)c2C)cc(F)c1CN1CC2(CCNC2=O)C1`
< 0.01 µM

* * *

targetOrSystem: human PD-L1 (Homo sapiens (Human))
assayInfo: Enzyme-Linked Immunosorbent Assay (ELISA), PD-1/PD-L1 binding
runConditions: human PD-1/PD-L1 ELISA, plates coated with human PD-L1
pIC50: −log10 of the molar value.
measuredProperty: pIC50

Consider the following illustrative entries.
                             compoundstring  measuredproperty  obsvalue
0  COc1cc(-c2cccc(-c3cccc(NC(=O)c4cn(C)c(=O)n(C)c4=O)c3C)c2F)cc(F)c1CNC[C@@H]1CCC(=O)N1             pIC50    > 8.00
1  COc1cc(-c2cccc(-c3cccc(NC(=O)c4nn(C)c(=O)n(C)c4=O)c3C)c2C)cc(F)c1CNCCCC(N)=O             pIC50    > 8.00
2  COc1cc(-c2cccc(-c3cccc(NC(=O)c4cn(C)c(=O)n(C)c4=O)c3C)c2C)cc(F)c1CN[C@H]1COCC[C@@H]1O             pIC50    > 8.00
3  COc1cc(-c2cccc(-c3cccc(NC(=O)c4c[nH]c(=O)n(C)c4=O)c3C)c2C)cc(F)c1CNCC[C@@H]1CCC(=O)N1             pIC50    > 8.00

For the compound shown here, `COc1cc(-c2cccc(-c3cccc(NC(=O)c4cn(C)c(=O)n(C)c4=O)c3C)c2Cl)cc(F)c1CN[C@@H]1CCOC[C@@H]1O` , give the reported pIC50.
> 8.00

Using the record for `COc1cc(-c2cccc(-c3cccc(Nc4cncc5nccnc45)c3C)c2C)cc(F)c1CNC[C@@H]1CCC(=O)N1` , report its pIC50.
> 8.00

* * *

targetOrSystem: human PD-L1 (Homo sapiens (Human), UniProt Q9NZQ7)
assayInfo: Enzyme-Linked Immunosorbent Assay (ELISA), PD-1/PD-L1 binding
runConditions: PD-1/PD-L1 ELISA, human PD-L1 coated plates, Table 1
Some compounds, each annotated with its measured IC50.

Example cases with answers are listed next.
>>> print(df.to_string())
                                   compound       obsvalue
0  COc1cc(-c2cccc(-c3cccc(NC(=O)c4ccccn4)c3C)c2C#N)cc(F)c1CN1CC(C(=O)O)C1  10 to 1000 nM
1  COc1cc(-c2cccc(-c3cccc(NC(=O)c4c[nH]c(=O)n(C)c4=O)c3C)c2C)cc(F)c1CN[C@@H]1CCC[C@@H]1O        < 10 nM
2  COc1cc(-c2cccc(-c3cccc(NC(=O)c4c[nH]c(=O)n(C)c4=O)c3C)c2C)cc(F)c1CN1CC(O)C1        < 10 nM
3  COc1cc(-c2cccc(-c3cccc(NC(=O)c4c(C)cc(C)n(C)c4=O)c3C)c2C)cc(F)c1CN1CC(C(=O)O)C1  10 to 1000 nM
4  COc1cc(-c2cccc(-c3cccc(NC(=O)c4ccc(C(=O)O)cn4)c3C)c2C)cc(F)c1CNCCO  10 to 1000 nM
5  COc1cc(-c2cccc(-c3cccc(Nc4cncc5nccnc45)c3C)c2C)cc(F)c1CN1CC(C(=O)O)C1        < 10 nM

Could you tell me which IC50 is on file for `COc1cc(-c2cccc(-c3cccc(NC(=O)c4ccc(F)cn4)c3C)c2C)cc(F)c1CN1CC(C(=O)O)C1` ?
10 to 1000 nM

Which IC50 is reported for this compound? `COc1cc(-c2cccc(-c3cccc(NC(=O)c4cnc(CC(N)=O)cn4)c3C)c2C)cc(F)c1CN`
< 10 nM

Suppose we examine the compound `COc1cc(-c2cccc(-c3cccc(Nc4nccc5nccnc45)c3C)c2C)cc(F)c1CN[C@H](C)CO` ; what IC50 value has been reported?
< 10 nM

Fill in the blank: the reported IC50 of `COc1cc(-c2cccc(-c3cccc(NC(=O)c4ccccn4)c3)c2C)cc(F)c1CN1CC(C(=O)O)C1` is ____.
10 to 1000 nM

# lookup: IC50 of COc1cc(-c2cccc(-c3cccc(NC(=O)c4c[nH]c(=O)n(C)c4=O)c3C)c2C)cc(F)c1CN1CCC(N)C1 (stereo not drawn)
10 to 1000 nM

Value lookup for IC50; key = `COc1cc(-c2cccc(-c3cccc(NC(=O)c4ccccn4)c3C)c2C)cc(F)c1CN1CC(C)(C(=O)O)C1`
< 10 nM

I'd like to know its IC50. The compound in question is COc1cc(-c2cccc(-c3cccc(NC(=O)C4CCCCO4)c3C)c2C)cc(F)c1CN (stereo not drawn)
10 to 1000 nM

Please report the recorded IC50 for COc1cc(-c2cccc(-c3cccc(NC(=O)C4CCCO4)c3C)c2C)cc(F)c1CN[C@@](C)(CO)C(=O)O (stereo partly drawn) .
1000 to 10000 nM

For the compound COc1cc(-c2cccc(-c3cccc(NC(=O)c4ccccn4)c3C)c2C)cc(F)c1CN1CCC2(C1)NC(=O)NC2=O (stereo not drawn) , what IC50 is on record?
10 to 1000 nM

Quick check: IC50 of `COc1cc(-c2cccc(-c3cccc(NC(=O)c4cnccn4)c3C)c2C)cc(F)c1CN1CC(C(=O)O)C1` ?
< 10 nM

Which IC50 value belongs to `COc1cc(-c2cccc(-c3cccc(Nc4cccc5cccnc45)c3C)c2C)cc(F)c1CN1CC(C(=O)O)C1` ?
10 to 1000 nM

Need IC50, item `COc1cc(-c2cccc(-c3cccc(NC(=O)c4ccncn4)c3C)c2C)cc(F)c1CNCCO`
< 10 nM

So what's the measured IC50 for this one? `COc1cc(-c2cccc(-c3cccc(NC(=O)c4cccn(C)c4=O)c3C)c2C)cc(F)c1CN[C@@](C)(CO)C(=O)O`
10 to 1000 nM

Entry under review: `COc1cc(-c2cccc(-c3cccc(NC(=O)c4cc(N)ncn4)c3C)c2C)cc(F)c1CN1CC(C(=O)O)C1` . Reported IC50?
< 10 nM

# lookup: IC50 of `COc1cc(-c2cccc(-c3cccc(NC(=O)c4cccn(CCO)c4=O)c3C)c2C)cc(F)c1CN1CC(C(=O)O)C1`
< 10 nM

Which measured IC50 value corresponds to `COc1cc(-c2cccc(-c3cccc(NC(=O)c4c[nH]c(=O)n(C)c4=O)c3C)c2C)cc(F)c1CN1CCOCC1` ?
10 to 1000 nM

May I ask what IC50 has been recorded for `COc1cc(-c2cccc(-c3cccc(NC(=O)c4c[nH]c(=O)n(C)c4=O)c3C)c2C)cc(F)c1CNC1COC1` ?
10 to 1000 nM

Returns the measured IC50 for the input compound. Input: `COc1cc(-c2cccc(-c3cccc(NC(=O)c4cncn(C)c4=O)c3C)c2C)cc(F)c1CN[C@@H]1CNC(=O)C1`
< 10 nM

For the compound shown here, COc1cc(-c2cccc(-c3cccc(Nc4nccc5nccnc45)c3C)c2C)cc(F)c1CNC1CCOC1 (stereo not drawn) , give the reported IC50.
< 10 nM

I have this compound here, `COc1cc(-c2cccc(-c3cccc(NC(=O)c4cccc(N)n4)c3C)c2C)cc(F)c1CN` , and I need its recorded IC50.
10 to 1000 nM

I would be grateful if you could share the reported IC50 for `COc1cc(-c2cccc(-c3cccc(Nc4nccc5nccnc45)c3C)c2C)cc(F)c1CN1CC(C(=O)O)C1` .
< 10 nM
